Assignment: determine reported CH4 permeability for the given molecules.
# value in Barrer; strip the unit string

Request: Reported CH4 permeability, molecule *Oc1c(C)cc(*)c([N+](=O)[O-])c1C (repeat unit) : ____
Response: 2.4

Request: Reported CH4 permeability, molecule *Oc1c(C)cc(*)c(C(=O)c2ccc(Cl)cc2)c1C (repeat unit) : ____
Response: 0.98

Request: Reported CH4 permeability, molecule *Oc1ccc(C(C)(C)c2ccc(OC(=O)c3cccc(C(=O)Oc4cc(-c5cc(*)cc6ccccc56)c5ccccc5c4)c3)cc2)cc1 (repeat unit) : ____
Response: 0.148

Request: Reported CH4 permeability, molecule *C(C)=C(*)c1ccccc1 (repeat unit) : ____
Response: 5.2

Request: Reported CH4 permeability, molecule *CC(*)(C)C(=O)OCCOCCOCCOCC (repeat unit) : ____
Response: 4.8

Request: Reported CH4 permeability, molecule *Oc1ccc(S(=O)(=O)c2ccc(Oc3c(C)cc(Cc4cc(C)c(*)c(C)c4)cc3C)cc2)cc1 (repeat unit) : ____
Response: 0.577

Request: Reported CH4 permeability, molecule *c1c(C)c(C)c(N2C(=O)c3ccc(Oc4c(C)ccc(C)c4Oc4ccc5c(c4)C(=O)N(*)C5=O)cc3C2=O)c(C)c1C (repeat unit) : ____
Response: 1.9

Request: Reported CH4 permeability, molecule *c1ccc(Oc2ccc3ccccc3c2-c2c(Oc3ccc(N4C(=O)c5ccc(C(c6ccc7c(c6)C(=O)N(*)C7=O)(C(F)(F)F)C(F)(F)F)cc5C4=O)cc3C(F)(F)F)ccc3ccccc23)c(C(F)(F)F)c1 (repeat unit) : ____
Response: 0.41

Request: Reported CH4 permeability, molecule *c1ccc(-c2cc(C)c(-c3ccc(*)cc3C)cc2C)c(C)c1 (repeat unit) : ____
Response: 0.88

Request: Reported CH4 permeability, molecule *Oc1c(C)cc(C(C)(C)c2cc(C)c(Oc3ccc(C(=O)c4ccc(*)cc4)cc3)c(C)c2)cc1C (repeat unit) : ____
Response: 1.1

Request: Reported CH4 permeability, molecule *Oc1cc2c(cc1O*)C1(CC2(C)CC)c2cc3c(cc2C(C)(CC)C1C)Oc1c(C#N)c(*)c(*)c(C#N)c1O3 (repeat unit) : ____
Response: 580

Request: Reported CH4 permeability, molecule *C(=C(*)c1ccccc1)c1ccccc1 (repeat unit) : ____
Response: 3700

Request: Reported CH4 permeability, molecule *CC(*)c1ccc(F)cc1 (repeat unit) : ____
Response: 1.06

Request: Reported CH4 permeability, molecule *Oc1c(C)cc(*)cc1C (repeat unit) : ____
Response: 4.1

Request: Reported CH4 permeability, molecule *C(=C(*)c1ccc([Si](c2ccccc2)(c2ccccc2)c2ccccc2)cc1)c1ccccc1 (repeat unit) : ____
Response: 5.58

Request: Reported CH4 permeability, molecule *Oc1ccc(C(=O)c2ccccc2-c2ccccc2C(=O)c2ccc(Oc3ccc(C(c4ccc(*)cc4)(C(F)(F)F)C(F)(F)F)cc3)cc2)cc1 (repeat unit) : ____
Response: 0.087

Request: Reported CH4 permeability, molecule *c1cccc(-c2cc(C)c(-c3cccc(*)c3C)cc2C)c1C (repeat unit) : ____
Response: 5.6

Request: Reported CH4 permeability, molecule *c1cccc(N2C(=O)c3ccc(C(c4ccc5c(c4)C(=O)N(*)C5=O)(C(F)(F)F)C(F)(F)F)cc3C2=O)c1C (repeat unit) : ____
Response: 0.88

Request: Reported CH4 permeability, molecule *O[Si](C)(C)CCCCCCCC[Si](*)(C)C (repeat unit) : ____
Response: 360

Request: Reported CH4 permeability, molecule *c1ccc(Oc2ccc(-n3c(=O)c4cc5sc6cc7c(=O)n(*)c(=O)c7cc6sc5cc4c3=O)cc2)cc1 (repeat unit) : ____
Response: 0.082

Request: Reported CH4 permeability, molecule *c1ccc(-c2cc(C)c(-c3ccc(*)c(C)c3)cc2C)cc1C (repeat unit) : ____
Response: 1.1

Request: Reported CH4 permeability, molecule *CC(*)(C)C(=O)OC (repeat unit) : ____
Response: 0.00565

Request: Reported CH4 permeability, molecule *c1c(C)cc(-c2cc(C)c(-c3cc(C)c(*)c(C)c3)cc2C)cc1C (repeat unit) : ____
Response: 15

Request: Reported CH4 permeability, molecule *OC1OC(COC(=O)NC(C)(C)C)C(*)C(OC(C)=O)C1OC(C)=O (repeat unit) : ____
Response: 1.4

Request: Reported CH4 permeability, molecule *c1ccc(C2(c3ccc(*)cc3)OC(=O)c3ccccc32)cc1 (repeat unit) : ____
Response: 2.88

Request: Reported CH4 permeability, molecule *Oc1c(C)cc(C(C)(C)c2cccc(C(C)(C)c3cc(C)c(Oc4ccc(S(=O)(=O)c5ccc(*)cc5)cc4)c(C)c3)c2)cc1C (repeat unit) : ____
Response: 0.28

Request: Reported CH4 permeability, molecule *Oc1ccc(C(C)(C)c2ccc(Oc3ccc(S(=O)(=O)c4ccc(*)c5ccccc45)cc3)cc2)cc1 (repeat unit) : ____
Response: 0.08

Request: Reported CH4 permeability, molecule *c1cccc(C(c2cccc(-c3nnc(*)n3-c3ccccc3)c2)(C(F)(F)F)C(F)(F)F)c1 (repeat unit) : ____
Response: 4.66

Request: Reported CH4 permeability, molecule *c1cccc(C(c2cccc(-c3nnc(*)n3-c3ccc(O)cc3)c2)(C(F)(F)F)C(F)(F)F)c1 (repeat unit) : ____
Response: 1.41

Request: Reported CH4 permeability, molecule *c1ccc2c(-c3c(OC(C)=O)ccc4cc(N5C(=O)c6ccc(Oc7ccc8c(c7)C(=O)N(*)C8=O)cc6C5=O)ccc34)c(OC(C)=O)ccc2c1 (repeat unit) : ____
Response: 0.05

Request: Reported CH4 permeability, molecule *c1c(C)c2c(c(N3C(=O)c4ccc(C(c5ccc6c(c5)C(=O)N(*)C6=O)(C(F)(F)F)C(F)(F)F)cc4C3=O)c1C)C(C)(C)CC2 (repeat unit) : ____
Response: 50.5

Request: Reported CH4 permeability, molecule *CC(*)c1ccc(C(C)(C)C)cc1 (repeat unit) : ____
Response: 16.7
